System: ACVRL1
condition_details: concentration: 1 μM, replicates: in singlicate; n = 1;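 further: KINOMEscan kinase panel screen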
reported_property: %Inh (%)
// return numeric value only (unit: %, not printed)

O=C(Nc1n[nH]c2nc(-c3nccs3)c(Br)cc12)C1CCCC1 [SB-742609] :: 0
Cc1nnc(-c2ccc3occ(-c4ccc(S(C)=O)cc4)c3c2)[nH]1 (stereo not drawn) :: 0
Cc1ccc(NC(=O)Nc2cc(C(C)(C)C)nn2-c2ccccc2)cc1 [GSK1014915] :: 5
C[C@@H]1CCCCN1c1cc(-c2ccc3c(N)n[nH]c3c2)nc(N)n1 [GSK2258759] :: 0
COc1cccc(-c2cc(-c3c[nH]nc3-c3ccccn3)ccn2)c1 [GW680338] :: 0

Ask: Fill in %Inh for Cl.O=C(Nc1cccc(-c2nn3ncccc3c2-c2ccnc(Nc3cccnc3)n2)c1)c1c(F)cccc1F [GSK312879] tested with ACVRL1.
Result: 2

Ask: Fill in %Inh for Fc1cc(Cl)ccc1Nc1ccnc2cc(-c3ccc(CN4CCCCC4)o3)ccc12 [GW560116] tested with ACVRL1.
Result: 0

Ask: Fill in %Inh for Nc1ncnc2[nH]c(-c3ccccc3)nc12 [AH5015] tested with ACVRL1.
Result: 0

Ask: Fill in %Inh for O=C(Nc1n[nH]c2nc(-c3nccs3)c(Br)cc12)C1CC1 [SB-742251] tested with ACVRL1.
Result: 0

----------
Overview of reported %Inh across a group of compounds:
Tested on: AMPK-alpha1
Construct: gene PRKAA1
condition_details: concentration: 1 μM, replicates: in singlicate; n = 1
// return numeric value only (unit: %, not printed)

Study these solved cases before continuing.
CC(C)(C)c1ccc(C(=O)Nc2cn3cc(Cl)ccc3n2)cc1 :: 0
O=C(Nc1n[nH]c2nc(-c3nccs3)c(Br)cc12)C1CC1 :: 10

Ask: # return recorded %Inh for input Cc1cccc(-c2cc(Nc3ccncc3)c3ccccc3n2)n1
Result: 0

Ask: # return recorded %Inh for input CN1C(=O)C(Nc2ccc(Cl)c(C(=O)O)c2)=C(c2ccc(Cl)cc2)C1=O
Result: 6

Ask: # return recorded %Inh for input COc1cccc(NC(=O)NC2CCN(c3ccnc(Nc4ccc(F)cc4)n3)C2)c1 (centres unmarked)
Result: 0

Ask: # return recorded %Inh for input Cc1csc(-c2nc(Nc3ccncc3)c3ccccc3n2)n1
Result: 12

Ask: # return recorded %Inh for input Cn1ccc2ncnc(Oc3ccc(NC(=O)Nc4ccccc4)cc3)c21
Result: 0

Ask: # return recorded %Inh for input CC(C)(C)c1ccc(C(=O)Nc2cn3cc(-c4cccnc4)ccc3n2)cc1
Result: 43

Ask: # return recorded %Inh for input CC(=O)Nc1nc2cnc(Nc3cc(NC(=O)c4cccc(CCC#N)c4)ccc3C)nc2s1
Result: 8

Ask: # return recorded %Inh for input Nc1nc(-c2nccs2)c(-c2ccnc3ccccc23)s1
Result: 0

Ask: # return recorded %Inh for input CS(=O)(=O)c1ccc(-c2c(-c3ncn[nH]3)sc(N3CCOCC3)c2C#N)cc1
Result: 22

Ask: # return recorded %Inh for input Cn1cncc1-c1ccc2ncnc(Nc3ccc(OCc4ccccc4)cc3)c2c1
Result: 35

Ask: # return recorded %Inh for input CS(=O)(=O)c1ccc(-c2nc3n(c2-c2ccncc2)CCC3)cc1
Result: 24

Ask: # return recorded %Inh for input Cc1cccc(-c2nc(Nc3ccncc3)c3ccccc3n2)n1
Result: 0

Ask: # return recorded %Inh for input COc1ccc2nc(-c3cccc(C)n3)nc(Nc3ccncc3)c2c1
Result: 0

Ask: # return recorded %Inh for input Cc1cccc(-c2nc(C)cc(Nc3ccncc3)n2)n1
Result: 3

Ask: # return recorded %Inh for input Cc1ccc(-c2cc(-c3c[nH]nc3-c3ccccn3)ccn2)cc1
Result: 0

Ask: # return recorded %Inh for input Fc1cc(Cl)ccc1Nc1ccnc2cc(I)ccc12
Result: 0

Ask: # return recorded %Inh for input Cc1cccc(-c2nc(Nc3cccc(C(N)=O)c3)c3ccccc3n2)n1
Result: 31

Ask: # return recorded %Inh for input O=C(Nc1n[nH]c2nc(-c3nccs3)c(Br)cc12)C1CCCC1
Result: 0

----------
System: PLK2
condition_details: concentration: 1 μM, replicates: in singlicate; n = 1
Overview of reported %Inh across a group of compounds:
// return numeric value only (unit: %, not printed)

Study these solved cases before continuing.
O=C(Nc1ccc2c(c1)OCO2)NC1CCN(c2ccnc(Nc3ccc(F)cc3)n2)C1 (stereo not drawn) [GSK1379724] :: 0
Cc1ccc(-c2cc(-c3c[nH]nc3-c3ccccn3)ccn2)cc1 [GW684088] :: 0

Ask: # return recorded %Inh for input Cc1ccc(C(=O)Nc2ccc(Nc3ccnc4cc(-c5ccccn5)ccc34)cc2O)cc1.Cl [GW440146]
Result: 0

Ask: # return recorded %Inh for input COC(=O)c1c(-c2ccccc2)c2cc(C(=O)O)ccc2c(=O)n1Cc1ccccc1
Result: 12

Ask: # return recorded %Inh for input Cc1cccc(-c2cc(Nc3ccncc3)c3ccccc3n2)n1 [GSK223675]
Result: 0

----------
Overview of reported %Inh across a group of compounds:
Test system: MLK3
condition_details: concentration: 1 μM, replicates: in singlicate; n = 1
// return numeric value only (unit: %, not printed)

Cn1ccc2ncnc(Oc3cccc(C(=O)Nc4ccccc4)c3)c21 :: 12
COc1ccccc1CNC(=O)c1cc(C(=O)c2ccccc2C)c[nH]1 :: 0
Cn1ccc2ncnc(Oc3ccc(Nc4nc5ccccc5[nH]4)cc3)c21 :: 0

Continue with the next compound.
Ask: # return recorded %Inh for input COc1cccc(NC(=O)NC2CCN(c3ccnc(Nc4ccc(F)cc4)n3)C2)c1 (stereo not shown)
Result: 0

----------
System: TRKA
Construct: gene NTRK1
condition_details: concentration: 1 μM, replicates: in singlicate; n = 1
Overview of reported %Inh across a group of compounds:
// return numeric value only (unit: %, not printed)

O=C1NC(=O)C(N2CCc3ccccc32)=C1c1ccccc1Cl :: 22
Cc1cc(N2Cc3ccccc3C2)nc(Nc2ccc(S(=O)(=O)N3CCOCC3)cc2)n1.Cl :: 0
CC(C)(C)c1ccc(C(=O)Nc2cn3cc(Cl)ccc3n2)cc1 :: 0

Ask: # return recorded %Inh for input O=C(O)COc1ncnc2cc(-c3ccc4[nH]ncc4c3)sc12
Result: 33

Ask: # return recorded %Inh for input Cc1cc(NCC(c2ccccc2)c2ccccc2)nc(NCc2ccc(C(F)(F)F)cc2)n1
Result: 0

Ask: # return recorded %Inh for input Cn1ccc2ncnc(Oc3ccc(NC(=O)Nc4ccccc4)cc3)c21
Result: 4

Ask: # return recorded %Inh for input Fc1cc(Cl)ccc1Nc1ccnc2cc(-c3ccc(CN4CCCCC4)o3)ccc12
Result: 4

Ask: # return recorded %Inh for input Cn1cncc1-c1ccc2ncnc(Nc3ccc(OCc4ccccc4)cc3)c2c1
Result: 45

Ask: # return recorded %Inh for input CS(=O)(=O)c1ccc(-c2c(-c3ncn[nH]3)sc(N3CCOCC3)c2C#N)cc1
Result: 13

----------
Test system: RIOK2
condition_details: concentration: 1 μM, replicates: in singlicate; n = 1
Overview of reported %Inh across a group of compounds:
// return numeric value only (unit: %, not printed)

Study these solved cases before continuing.
Cc1cccc(-c2nc(C)cc(Nc3ccncc3)n2)n1 [GSK257997] :: 16
CN1C(=O)C(Nc2ccc(Cl)c(C(=O)O)c2)=C(c2ccc(Cl)cc2)C1=O [SB-404290] :: 0
CC1=C(C(=O)Nc2cc3cn[nH]c3cc2F)C(c2ccc(C(F)(F)F)cc2)CC(=O)N1 (stereo not shown) [GSK429286] :: 23
Fc1cc(Cl)ccc1Nc1ccnc2cc(I)ccc12 [GW551191] :: 0
O=C(Nc1ccc2c(c1)OCO2)NC1CCN(c2ccnc(Nc3ccc(F)cc3)n2)C1 (stereo not shown) [GSK1379724] :: 0

Ask: # return recorded %Inh for input C[C@@H]1CCCCN1c1cc(-c2ccc3c(N)n[nH]c3c2)nc(N)n1 [GSK2258759]
Result: 1

Ask: # return recorded %Inh for input NC(=O)c1nnc2ccccc2c1N
Result: 44

Ask: # return recorded %Inh for input O=C1NC(=O)C(N2CCc3ccccc32)=C1c1ccccc1Cl [SB-373598]
Result: 4

Ask: # return recorded %Inh for input O=S(=O)(c1ccc(-c2ccnc3[nH]ccc23)cc1)N1CCCC1 [GSK846226]
Result: 85

Ask: # return recorded %Inh for input Cc1ccc(NC(=O)Nc2cc(C(C)(C)C)nn2-c2ccccc2)cc1 [GSK1014915]
Result: 0

Ask: # return recorded %Inh for input COc1cc(Nc2nccc(N3CCC(NC(=O)Nc4cc(C)ccc4C)C3)n2)cc(OC)c1OC (stereo not shown) [GSK1379762]
Result: 6

Ask: # return recorded %Inh for input Cc1c(Cn2ccn3c(=O)cc(N4CCOCC4)nc23)cccc1C(F)(F)F [GSK2289044]
Result: 34

Ask: # return recorded %Inh for input O=C(Nc1n[nH]c2nc(-c3nccs3)c(Br)cc12)C1CCCC1 [SB-742609]
Result: 0

Ask: # return recorded %Inh for input Cc1nnc(-c2ccc3occ(-c4ccc(S(C)=O)cc4)c3c2)[nH]1 (stereo not shown)
Result: 31

Ask: # return recorded %Inh for input COc1cccc(NC(=O)NC2CCN(c3ccnc(Nc4ccc(F)cc4)n3)C2)c1 (stereo not shown) [GSK1379721]
Result: 0

Ask: # return recorded %Inh for input O=C(O)COc1ncnc2cc(-c3ccc4[nH]ncc4c3)sc12
Result: 16

Ask: # return recorded %Inh for input O=c1cc(N2CCOCC2)nc2n(Cc3cccc(Cl)c3Cl)ccn12 [GSK2286295]
Result: 56

Ask: # return recorded %Inh for input CC(C)(C)c1ccc(C(=O)Nc2cn3cc(-c4cccnc4)ccc3n2)cc1
Result: 33

Ask: # return recorded %Inh for input COC(=O)c1c(-c2ccccc2)c2cc(C(=O)O)ccc2c(=O)n1Cc1ccccc1
Result: 26
